- Tested on: constitutive active colorectal cancer cell (CRC) Wnt pathway
- experiment_notes: HCT116 Super TopFlash cellular reporter assay (constitutive active Wnt pathway)
- Format: cell-based
- experimental_setup: HCT116 TOP reporter cells, luciferase expression, 36 hours incubation, 50 μM to 15 nM
- Source text: In order to discover and characterize small molecules which inhibit the constitutive active colorectal cancer cell (CRC) Wnt pathway, a cellular reporter assay was employed. The corresponding assay cell was generated by transfection of the colorectal cancer cell line HCT116 (ATCC, #CCL-247) with the Super TopFlash vector (Morin, Science 275, 1997, 1787-1790; Molenaar et al., Cell 86 (3), 1996, 391-399). […]
pIC50: −log10 of the molar value.
endpoint: pIC50

Worked cases, pIC50 given:
compound | test_target | pIC50
COCCCOCc1ccc(C(=O)Nc2ccc(-c3ccccc3)cc2)cc1NC(=O)C(C)N1CCOCC1 (single isomer, unassigned) [Example 179] | constitutive active colorectal cancer cell (CRC) Wnt pathway | 6.52
COc1ccc(C(=O)Nc2ccc(-c3ccccc3)cc2)cc1NC(=O)C1(N2CCN(C)CC2)CC1 [Example 133] | constitutive active colorectal cancer cell (CRC) Wnt pathway | 6.44
CC(C(=O)Nc1cc(NC(=O)c2ccc(-c3ccccc3)cc2)ccc1C(F)(F)F)N1CCOCC1 (single isomer, unassigned) [Example 180] | constitutive active colorectal cancer cell (CRC) Wnt pathway | 6.52
COCc1ccc(C(=O)Nc2ccc(-c3ccccc3)cc2)cc1NC(=O)C(C)N1CCOCC1 (single isomer, unassigned) [Example 173] | constitutive active colorectal cancer cell (CRC) Wnt pathway | 6.67
CC(C(=O)Nc1cc(NC(=O)c2ccc(-c3ccccc3)cc2)ccc1C(F)(F)F)N1CC2CCC(C1)O2 (single isomer, unassigned) [Example 182] | constitutive active colorectal cancer cell (CRC) Wnt pathway | 6.51

[P] CCC(C(=O)Nc1cc(C(=O)Nc2ccc(-c3ccccc3)cc2)ccc1OC)N1CCOCC1 (single isomer, unassigned) [Example 132]
[Q] COCCCOCc1ccc(C(=O)Nc2ccc(-c3ccccc3)cc2)cc1NC(=O)C(C)N1CCOCC1 (single isomer, unassigned) [Example 166]
[R] CC(C(=O)Nc1cc(NC(=O)c2ccc(-c3ccccc3)cc2)ccc1C(F)(F)F)N1CC2CCC(C1)O2 (stereo not drawn) [Example 197]
[S] COc1ccc(C(=O)Nc2ccc(-c3ccccc3)cc2)cc1NC(=O)C1(N2CCN(C)CC2)CC1 [Example 100]
Ask: Given 4 compounds, produce a descending ranking by pIC50. Form entry: labels listed in requested order.
Reply: S, Q, P, R
